Data origin: paper PMC8175350

Assay: HepG2 72 h CellTiter-Glo cytotoxicity
Conditions: human, HepG2 cells
Structures can show the parent of a compound that is named as a salt.
The following compounds are listed with their measured CC50 at 72 h values.

Answered cases to consult:
What value of CC50 at 72 h has been reported for the following compound? NC1(c2ccc(-c3nc4ccn5c(=O)[nH]nc5c4cc3-c3ccccc3)cc2)CCC1 [MK-2206] 7.59 µM

What value of CC50 at 72 h has been reported for the following compound? CCCCN(CCCC)CCC(O)c1cc2c(Cl)cc(Cl)cc2c2cc(C(F)(F)F)ccc12 (centres unmarked) [Halofantrine HCl] 30.5 µM

What value of CC50 at 72 h has been reported for the following compound? CNC(=O)c1cc(Oc2ccc(NC(=O)Nc3ccc(Cl)c(C(F)(F)F)c3)cc2)ccn1 [Sorafenib] 7.15 µM

What value of CC50 at 72 h has been reported for the following compound? OCCN1CCN(CC/C=C2/c3ccccc3Sc3ccc(Cl)cc32)CC1 [Zuclopenthixol] 12.5 µM

For the next question, use this compound.
What value of CC50 at 72 h has been reported for the following compound? CC(CN(C)C)CN1c2ccccc2CCc2ccccc21 (centres unmarked) [Trimipramine maleate] 18.8 µM

* * *

Experiment: Pharmacokinetic studies in Syrian hamsters, PO
Format: in vivo
Conditions: male, Syrian, hamster, plasma; 500 mg/kg PO, 10%DMSO/90% Corn Oil
Structures can show the parent of a compound that is named as a salt.
readout-kind: AUC(0-inf) (ng·h/mL)
# unit: ng·h/mL | format: bare number

What value of AUC(0-inf) has been reported for the following compound? Cc1c(O)cccc1C(=O)N[C@@H](CSc1ccccc1)[C@H](O)CN1C[C@H]2CCCC[C@H]2C[C@H]1C(=O)NC(C)(C)C [Nelfinavir mesylate] 5480

* * *

The following compounds are listed with their measured CC50 values.
Assay: in vitro
Conditions: human, Calu-3 uninfected cytotoxicity CC50 GeoMean (µM), geometric mean of replicates

What value of CC50 has been reported for the following compound? "CC(C)(C)c1ccc(CSc2cnn(C(C)(C)C)c(=O)c2Cl)cc1" > 8.99 µM

More entries:
What value of CC50 has been reported for the following compound? "CCOc1ccc(Cc2nc3cc(N(C)S(=O)(=O)c4cccs4)ccc3n2CC2CCCCC2)nc1" > 29.9 µM

* * *

The following compounds are listed with their measured Calu-3 uninfected cytotoxicity Sinf Average values.
Test system: Calu-3 cells
Experiment: Uninfected Calu-3 48 h Cell-Titer Glo cytotoxicity counter screen
Details: curve plateau at infinite concentration
Structures can show the parent of a compound that is named as a salt.
# unit: % | format: bare number

What value of Calu-3 uninfected cytotoxicity Sinf Average has been reported for the following compound? Cc1c(O)cccc1C(=O)N[C@@H](CSc1ccccc1)[C@H](O)CN1C[C@H]2CCCC[C@H]2C[C@H]1C(=O)NC(C)(C)C [Nelfinavir mesylate] -93

What value of Calu-3 uninfected cytotoxicity Sinf Average has been reported for the following compound? CC(C)(C)Cn1c(N)nc2ccc(-c3[nH]c(C(C)(C)C)nc3-c3ccc(F)cc3)nc21 [Ralimetinib mesylate/LY2228820, Ralimetinib mesylate] -97

What value of Calu-3 uninfected cytotoxicity Sinf Average has been reported for the following compound? CN1CC2c3ccccc3Oc3ccc(Cl)cc3C2C1 (centres unmarked) [Asenapine maleate] -100

What value of Calu-3 uninfected cytotoxicity Sinf Average has been reported for the following compound? COc1ccc(C[C@H](N)C(=O)N[C@H]2[C@@H](O)[C@H](n3cnc4c(N(C)C)ncnc43)O[C@@H]2CO)cc1 [Puromycin - cytotoxicity control] -101

More entries:
What value of Calu-3 uninfected cytotoxicity Sinf Average has been reported for the following compound? CCC(CC)COC(=O)[C@H](C)NP(=O)(OC[C@H]1O[C@@](C#N)(c2ccc3c(N)ncnn23)[C@H](O)[C@@H]1O)Oc1ccccc1 (some centres unmarked) [Remdesivir - control] -100

What value of Calu-3 uninfected cytotoxicity Sinf Average has been reported for the following compound? "CNC(=O)c1cc(Oc2ccc(NC(=O)Nc3ccc(Cl)c(C(F)(F)F)c3)cc2)ccn1" -88
